Items are presented alongside their recorded Brain.
# System: LNCaP tumor-transplanted mouse
# protocol_text: Internal radioactivity distribution using LNCaP tumor-transplanted mouse
# Format: in vivo
# assay_conditions: 48 h after administration
Write the value in % ID/g as a bare number.

INSERT INTO assay_data (molecule, outcome_measure, reading) VALUES
  ('O=C([O-])CN(Cc1cccc(C(=O)[O-])n1)C[C@H](Cc1ccc(NC(=O)CCCCCNC(=O)CCC(=O)NCCCC[C@H](NC(=O)N[C@@H](CCC(=O)O)C(=O)O)C(=O)O)cc1)N(CC(=O)[O-])Cc1cccc(C(=O)[O-])n1.[111In+3] [[^111In]In-Octapa-1, reference compound]', 'Brain', 0.01);

query: Bench note: what Brain did O=C([O-])CN(CCN(CCc1ccc(NC(=O)CCCCCNC(=O)CCC(=O)NCCCC[C@H](NC(=O)N[C@@H](CCC(=O)O)C(=O)O)C(=O)O)cc1)CCN(CC(=O)[O-])Cc1cccc(C(=O)[O-])n1)Cc1cccc(C(=O)[O-])n1.[111In+3] [[^111In]In-Neunpa-1, reference compound] show?
result: 0.03

query: Field entry: O=C(O)CC[C@H](NC(=O)N[C@@H](CCCCNC(=O)[C@H](Cc1ccc2ccccc2c1)NC(=O)[C@H]1CC[C@H](CNC(=O)CCC(C(=O)O)N2CCN(CC(=O)O)CCN(C(CCC(=O)N[C@@H](CCCCNC(=O)CCCc3ccc(I)cc3)C(=O)O)C(=O)O)CCN(CC(=O)O)CC2)CC1)C(=O)O)C(=O)O (stereo partly drawn) [[^111In]In-PSMA-NAT-DA1, metal not drawn]
result: 0.45

query: Field entry: O=C([O-])CN(CCN(CCc1ccc(NC(=O)[C@H](CCCCNC(=O)CCC(=O)NCCCC[C@H](NC(=O)N[C@@H](CCC(=O)O)C(=O)O)C(=O)O)NC(=O)CCCc2ccc(I)cc2)cc1)CCN(CC(=O)[O-])Cc1cccc(C(=O)[O-])n1)Cc1cccc(C(=O)[O-])n1.[111In+3] [[^111In]In-Neunpa-2]
result: 0.03

query: Field entry: O=C([O-])CN(Cc1cccc(C(=O)[O-])n1)C[C@H](Cc1ccc(NC(=O)[C@H](CCCCNC(=O)CCC(=O)NCCCC[C@H](NC(=O)N[C@@H](CCC(=O)O)C(=O)O)C(=O)O)NC(=O)CCCc2ccc(I)cc2)cc1)N(CC(=O)[O-])Cc1cccc(C(=O)[O-])n1.[111In+3] [[^111In]In-Octapa-2]
result: 0.02

query: Field entry: O=C([O-])CN1CCN(C(CCC(=O)NCCCC[C@H](NC(=O)N[C@@H](CCC(=O)O)C(=O)O)C(=O)O)C(=O)[O-])CCN(CC(=O)[O-])CCN(C(CCC(=O)N[C@@H](CCCCNC(=O)CCCc2ccc(I)cc2)C(=O)O)C(=O)[O-])CC1.[111In+3] (stereo partly drawn) [[^111In]In-PSMA-DA1]
result: 0.16

query: Field entry: O=C([O-])CN(Cc1cccc(C(=O)[O-])n1)C[C@H](Cc1ccc(NC(=O)[C@H](CCCCNC(=O)CCC(=O)NCCCC[C@H](NC(=O)N[C@@H](CCC(=O)O)C(=O)O)C(=O)O)NC(=O)COCCOCCOCC(=O)N[C@@H](CCCCNC(=O)CCCc2ccc(I)cc2)C(=O)O)cc1)N(CC(=O)[O-])Cc1cccc(C(=O)[O-])n1.[111In+3] [[^111In]In-Octapa-3]
result: 0.12

query: Field entry: O=C([O-])CN1CCN(C(CCC(=O)NCCCC[C@H](NC(=O)N[C@@H](CCC(=O)O)C(=O)O)C(=O)O)C(=O)[O-])CCN(CC(=O)[O-])CCN(C(CCC(=O)Nc2ccccc2)C(=O)[O-])CC1.[111In+3] (stereo partly drawn) [[^111In]In-PSMA-DB, reference compound]
result: 0.03

query: Field entry: O=C([O-])CN1CCN(C(CCC(=O)NCCC(=O)N2Cc3ccccc3-c3c(nnn3CCOCCOCCOCCOCCC(=O)NCCCC[C@H](NC(=O)N[C@@H](CCC(=O)O)C(=O)O)C(=O)O)-c3ccccc32)C(=O)[O-])CCN(CC(=O)[O-])CCN(C(CCC(=O)N[C@@H](CCCCNC(=O)CCCc2ccc(I)cc2)C(=O)O)C(=O)[O-])CC1.[111In+3] (stereo partly drawn) [[^111In]In-PtDA]
result: 0.20
